From: the supplement of paper PMC9170038

test system: MS2 coat protein; assay: apparent KD of MS2 coat protein; designed switch direction (-1 OFF switch, 1 ON switch): 1; higher = weaker reporter binding; conditions: input ligand: none
Entries and their measured apparent KD of MS2 coat protein follow.
recorded.endpoint: apparent KD of MS2 coat protein (µM)

seq.text	target.of.assay	unit.text	data.value
AGGGUACAUGAGGAUCACCCAUGUGGGUCGGUCGCAGGAUAUGCCCGUGGGCGCUGGCGGGCAGAAGGGUGCCGAA [Same State1-IX] (Eterna round: R96, puzzle: Same State 1)	MS2 coat protein	µM	0.341
GGAGGACAUGAGGAUCACCCAUGUGGAUGGGCGCUAGGAUAUGCGUGCGGGAAGAGUGGAGCAGAAGGAGUGGGUU [JR_SS1_Sub045] (Eterna round: R96, puzzle: Same State 1)	MS2 coat protein	µM	0.0556
UCUCGGCACGCAGGAUAUCCCGCUUCCUGGUGAGGAGAAGGGUGGUCGGGAAAACAUGAGGAUCACCCAUGUAAAAGUAAGAGG [Usdidige] (Eterna round: R96, puzzle: Same State NG 1)	MS2 coat protein	µM	0.183
AGUCCAGCCUGAGCUGGACAAAAGCAUGUACAUGAGGAUCACCCAUGUUCAUGUGCAAGCUUUUUGCUCGUCUUAAA [Zipper 52 - 4] (Eterna round: R96, puzzle: Sensor for hsa-mir-208a)	MS2 coat protein	µM	0.0698

====

Entries and their measured apparent KD of MS2 coat protein follow.
system: MS2 coat protein; test: apparent KD of MS2 coat protein; designed switch direction (-1 OFF switch, 1 ON switch): -1; higher = weaker reporter binding; settings: input ligand: FMN 200 uM
recorded.endpoint: apparent KD of MS2 coat protein (nM)

seq.text	data.value
UCAAAAUAGUCAGGAUAUGCAGAUUCAGCGUCCGCAGAAGGGACAGUGGGCUGGUCCGACACAUGAGGAUCACCCAUGUAAAAG [Teerreanor] (Eterna round: R96, puzzle: Exclusion NG 1)	260
CCCAGUUAGGAAGGAUAUUGUACAUGAGGAUCACCCAUGUAAUAAAUGAGGAUCUCGGGUGUCUACAAGAAGGUCCGGAUAGGC [Ostracism 12 - Jieux - Exclusion NG 2] (Eterna round: R96, puzzle: Exclusion NG 2)	104
ACAUGAGGAUCACCCAUGUAAUCAUAAUGGCUGAUGUAGAGUCAGGAUAUGUGUGGCUUUCUAUCGCAGAAGGGACAAGACUGG [Deportation 34 - Jieux - Exclusion NG 3] (Eterna round: R96, puzzle: Exclusion NG 3)	26.3
AUGUACCGAAGAAGUUGUAACAUGAGGAUCACCCAUGUCGAAGUGAGGACAGGGAAGAGAAGCUGUGCUCGUCAUAG [Eternabot (L2) Solution 17] (Eterna round: R97, puzzle: Sensor, turn-off variant 1)	71.6
ACAUGAGGAUCACCCAUGUAAACAUAAUGGCUCAUGUAGAGUCAGGAUAUGCGUGGCGAACAACCGCAGAAGGGACAAGACUGG [Deportation 27 - Jieux - Exclusion NG 3] (Eterna round: R96, puzzle: Exclusion NG 3)	25.7
AAGUGCAAAGGAUAUACGUGACUUACUCCAAUUGCUACCCGACAUGAGGAUCACCCAUGUAGAAGGUUGCGCAC [Eternabot (Original) Solution 20] (Eterna round: R97, puzzle: Exclusion 2)	34.3
ACAUGAGGAUCACCCAUGUAAUCAUGAUGGCUGAUGUAGAGUCAGGAUAUGUGUGGCUUUCUAUCGCAGAAGGGACAAGACUGG [Deportation 35 - Jieux - Exclusion NG 3] (Eterna round: R96, puzzle: Exclusion NG 3)	45.6
CCCUCAAGCGAGGAUAUAAAUGCGCAUUCGCGGUUAGAAGGCGCUACAUGAGGAUCACCCAUGUAAUUAAAUGG [jl-ex6-4.51 ViennaUCT mod] (Eterna round: R97, puzzle: Exclusion 6)	128
AAAACUCGAGUUAGGAUAUUGAGUGCUAAAAUCACCAAGAAGGAACAUGAGGAUCACCCAUGUAACGAAGGUGA [BmEX4 A.10] (Eterna round: R97, puzzle: Brourd's mod of Exclusion 4)	19.8
AUGCGACAUGAGGAUCACCCAUGUGAGGAUAUGCGAAUGCAUACUUCGGUGUGAUAGAGCAGAAGGCGCAGGUA [EX1 #16] (Eterna round: R97, puzzle: Exclusion 1)	560
UUUUAGUCAGGAUAUACAUGAGGAUCACCCAUGUAAAAUUUUAAUUUAAUUUGAAUGUGUAGAAGGGACAUUUU [Ex3 #41] (Eterna round: R97, puzzle: Exclusion 3)	23.6
UGGAAGUGAGGAUAUCCAAUAUAUGACAUGAGGAUCACCCAUGUUUCCACUCGUACCUCCGGAGAAGGCACAAGGU [Ex5 #56] (Eterna round: R97, puzzle: Exclusion 5)	56.5
UUUUGUCAGGUAUUUAUUAACAUGAGGAUCACCCAUGUGCAUCCAAAAUUACUUUUAGAUCAAGCUCGUCUUAUAUA [JR_STOV1_Sub089] (Eterna round: R97, puzzle: Sensor, turn-off variant 1)	94.3
UGAGAGUGAGGAUAUACGUCGCUGGUCCAGAUGGACGCAUGACAUGAGGAUCACCCAUGUAGAAGGCAUUUCCC [Enxela Mod 8 - Jieux - Exclusion 2] (Eterna round: R97, puzzle: Exclusion 2)	61.9
